- TARGET: human LAT1 (Homo sapiens, UniProt Q01650)
- Sequence (Q01650 whole entry): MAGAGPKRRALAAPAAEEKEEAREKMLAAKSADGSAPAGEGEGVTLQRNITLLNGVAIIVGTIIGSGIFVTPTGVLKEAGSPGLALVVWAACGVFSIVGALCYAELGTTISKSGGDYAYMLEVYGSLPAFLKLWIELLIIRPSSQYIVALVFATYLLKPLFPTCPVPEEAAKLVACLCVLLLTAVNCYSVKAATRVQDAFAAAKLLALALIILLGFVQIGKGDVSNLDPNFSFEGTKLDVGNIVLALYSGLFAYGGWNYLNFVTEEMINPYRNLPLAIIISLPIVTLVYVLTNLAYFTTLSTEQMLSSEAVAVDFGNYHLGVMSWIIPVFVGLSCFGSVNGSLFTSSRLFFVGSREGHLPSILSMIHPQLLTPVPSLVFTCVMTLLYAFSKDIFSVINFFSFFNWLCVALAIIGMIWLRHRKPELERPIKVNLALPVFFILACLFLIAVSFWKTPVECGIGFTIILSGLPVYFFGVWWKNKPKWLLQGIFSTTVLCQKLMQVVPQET
- Sequence (P08195 102-630 partner): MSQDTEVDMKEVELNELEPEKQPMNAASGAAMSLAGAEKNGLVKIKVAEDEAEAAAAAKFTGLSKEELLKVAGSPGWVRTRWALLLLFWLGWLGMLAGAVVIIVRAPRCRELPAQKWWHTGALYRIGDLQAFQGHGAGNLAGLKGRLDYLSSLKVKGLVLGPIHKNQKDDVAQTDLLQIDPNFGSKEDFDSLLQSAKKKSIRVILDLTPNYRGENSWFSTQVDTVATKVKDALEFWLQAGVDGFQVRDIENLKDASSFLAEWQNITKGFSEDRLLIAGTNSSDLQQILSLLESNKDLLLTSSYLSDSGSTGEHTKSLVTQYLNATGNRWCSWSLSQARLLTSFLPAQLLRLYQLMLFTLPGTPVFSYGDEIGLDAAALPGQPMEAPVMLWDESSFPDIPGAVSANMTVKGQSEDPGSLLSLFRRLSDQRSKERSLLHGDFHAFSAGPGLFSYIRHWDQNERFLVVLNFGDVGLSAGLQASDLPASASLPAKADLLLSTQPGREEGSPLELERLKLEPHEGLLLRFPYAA
- Type: cell-based
- MEASUREMENT CONDITIONS: based on trans-stimulation assay
QUANTITY: LAT1 substrate activity (in words)

The following compounds have reported results that may help.
COMPOUND: NCc1cccc(C[C@H](N)C(=O)O)c1 [Compound 74]
LAT1 substrate activity (in words): LAT1 substrates

COMPOUND: N[C@@H](Cc1cccc(C(=O)OCCO)c1)C(=O)O [Compound 82]
LAT1 substrate activity (in words): substrates of LAT1

COMPOUND: C[C@](N)(Cc1ccccc1)C(=O)O [Compound 92, α-methyl phenylalanine]
LAT1 substrate activity (in words): substrates

COMPOUND: CC(C)(C)OC(=O)c1cccc(C[C@H](N)C(=O)O)c1 [Compound 81]
LAT1 substrate activity (in words): substrates of LAT1

COMPOUND: N[C@@H](Cc1cn(Cc2ccccc2)cn1)C(=O)O [Compound 59, benzyl histidine]
LAT1 substrate activity (in words): substrates

[in] Look up LAT1 substrate activity (in words) for this compound: CC(N)(Cc1ccccc1)C(=O)O (stereo in doubt) [Compound 92-D, α-methyl phenylalanine]
[out] substrates

[in] Next compound up: N[C@@](Cc1ccccc1)(Cc1c[nH]cn1)C(=O)O [Compound 107]
[out] inactive

[in] Next compound up: N[C@@H](Cc1cccc(C(=O)O)c1)C(=O)O [Compound 83]
[out] LAT1 substrates

[in] Next compound up: NC(Cc1ccccc1)(Cc1ccccc1)C(=O)O [Compound 93]
[out] inactive
